System: CCRF-CEM
assay-remarks: NCI tumour cell line growth inhibition, 48 h
Calls of active or inactive are those of the source. Rule as the data show it: active = GI50 up to about 1.1 µM and inactive = higher.
Kindly state GI50 for each of the entries shown.

Entry under review: "O=C(/C=C/C=C/c1ccccc1)c1ccc2c(c1)CCCC2" . Reported GI50?
27.8 µM (inactive)

Entry under review: "CC1=Nn2c(nnc2-c2ccc(N)cc2)NC(C)(C)C1" . Reported GI50?
> 100 µM (inactive)

Entry under review: "COc1ccc2c(O)c(Oc3ccc(Cl)cc3)c(=O)oc2c1" . Reported GI50?
> 100 µM (inactive)

Entry under review: CC(=O)OC1C2CCC3C(C)(O)C4CC(O)C(C)(C)C4(O)C(O)CC13CC2(C)O (stereo unspecified) . Reported GI50?
> 100 µM (inactive)

Entry under review: "CN(C)c1ccc(/C=C2\N=C(c3ccccc3)N(/N=C3\C(=O)Nc4ccccc43)C2=O)cc1" . Reported GI50?
37.2 µM (inactive)

Entry under review: "CCCCCC/C=C/CCCCCCCc1cccc(O)c1C(=O)O" . Reported GI50?
39.5 µM (inactive)
